Please go through the items and note down their log10 of IC50.
Test system: K24384-001-R-PDC complex spheroids, viability;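 also: spheroids exposed to compounds for seven days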
TEST_PROTOCOL: Anticancer human tumor K24384-001-R-PDC patient-derived pancreatic adenocarcinoma cell line growth inhibition [GQUAD]
CONDITION_DESCRIPTION: curve of first compound; second compound 0.1 µM
Values below are the log10 of the recorded IC50, with µM as the unit.

Reference set, count: 6
1) C=CC(=O)N1CCN(c2nc(=O)n(-c3c(C)ccnc3C(C)C)c3nc(-c4c(O)cccc4F)c(F)cc23)C(C)C1 (configuration not stated) + Cc1cnc(CNC(=O)c2c(=O)c3ccc(N4CCCN(C)CC4)nc3n3c2sc2ccccc23)cn1; 0.94
2) C#Cc1c(F)ccc2cc(O)cc(-c3ncc4c(N5CC6CCC(C5)N6)nc(OCC56CCCN5CC(F)C6)nc4c3F)c12 (configuration not stated) + Cc1[nH]c2ccc(F)cc2c1-c1nc2c3cccnc3c3ncccc3c2[nH]1; 0.17
3) CC1COCCN1c1cc(C2(O)CC3CCC(C2)O3)c2cnn(-c3ccn[nH]3)c2n1 (configuration not stated) + Cc1[nH]c2ccc(F)cc2c1-c1nc2c3cccnc3c3ncccc3c2[nH]1; -0.68
4) CC(C)(O)C1CCC(Nc2ccc3ncc(-c4cccc(C(F)(F)F)c4)n3n2)CC1 (configuration not stated) + Cc1[nH]c2ccc(F)cc2c1-c1nc2c3cccnc3c3ncccc3c2[nH]1; 0.31
5) CC(C)(O)C1CCC(Nc2ccc3ncc(-c4cccc(C(F)(F)F)c4)n3n2)CC1 (configuration not stated) + CN(C)c1ccc(Nc2c3ccc(NC(=O)CCN4CCCC4)cc3nc3cc(NC(=O)CCN4CCCC4)ccc23)cc1; 0.31
6) CC[C@@]1(O)C(=O)OCc2c1cc1n(c2=O)Cc2cc3c(CN(C)C)c(O)ccc3nc2-1 + Cc1[nH]c2ccc(F)cc2c1-c1nc2c3cccnc3c3ncccc3c2[nH]1; -0.53

List reported log10 of IC50 for each of these compounds:
1. Cc1[nH]c2ccccc2c1CCNCc1ccc(/C=C/C(=O)NO)cc1 + Cc1cnc(CNC(=O)c2c(=O)c3ccc(N4CCCN(C)CC4)nc3n3c2sc2ccccc23)cn1
2. O=C(NO)c1cnc(N2CCN(S(=O)(=O)c3ccc4ccccc4c3)CC2)nc1 + Cc1cnc(CNC(=O)c2c(=O)c3ccc(N4CCCN(C)CC4)nc3n3c2sc2ccccc23)cn1
3. C#Cc1c(F)ccc2cc(O)cc(-c3ncc4c(N5CC6CCC(C5)N6)nc(OCC56CCCN5CC(F)C6)nc4c3F)c12 (configuration not stated) + Cc1cnc(CNC(=O)c2c(=O)c3ccc(N4CCCN(C)CC4)nc3n3c2sc2ccccc23)cn1
4. COc1cccc2c1C(=O)c1c(O)c3c(c(O)c1C2=O)CC(O)(C(=O)CO)CC3OC1CC(N)C(O)C(C)O1 (configuration not stated) + Cc1[nH]c2ccc(F)cc2c1-c1nc2c3cccnc3c3ncccc3c2[nH]1
5. COc1ccc([C@@H](O)c2cc(-c3ncnc4cc(N5CCOCC5)ccc34)c(F)cc2Cl)nn1 + Cc1cnc(CNC(=O)c2c(=O)c3ccc(N4CCCN(C)CC4)nc3n3c2sc2ccccc23)cn1

A)
-1.10
-0.49
-0.31
-0.69
-0.30
